- runDescription: Partition coefficient
- Assay type: physicochemical
endpointLabel: logP

a. COC(=O)c1ccc(NC(=O)c2ccc(NC(=O)c3ccc([N+](=O)[O-])c(OCC(=O)O)n3)c(OCC(C)C)n2)c(OCC(=O)O)n1 [ADM-11, reference compound]
b. CCOC(=O)c1cc(NC(=O)c2cc(NC(=O)c3cc([N+](=O)[O-])cn3CC(C)C)cn2CC(C)C)cn1CCC(=O)O
Quick check, higher logP between a and b ? Answer with the label corresponding to your selection. b
(b: 2.2, a: -0.8)
